# targetSystem: P2X7 receptor (Homo sapiens, UniProt Q99572)
# Construct: 200 μl of a suspension of THP-1 cells; endogenous in cells; host or cells: THP-1 cells
# Sequence (Q99572 whole entry): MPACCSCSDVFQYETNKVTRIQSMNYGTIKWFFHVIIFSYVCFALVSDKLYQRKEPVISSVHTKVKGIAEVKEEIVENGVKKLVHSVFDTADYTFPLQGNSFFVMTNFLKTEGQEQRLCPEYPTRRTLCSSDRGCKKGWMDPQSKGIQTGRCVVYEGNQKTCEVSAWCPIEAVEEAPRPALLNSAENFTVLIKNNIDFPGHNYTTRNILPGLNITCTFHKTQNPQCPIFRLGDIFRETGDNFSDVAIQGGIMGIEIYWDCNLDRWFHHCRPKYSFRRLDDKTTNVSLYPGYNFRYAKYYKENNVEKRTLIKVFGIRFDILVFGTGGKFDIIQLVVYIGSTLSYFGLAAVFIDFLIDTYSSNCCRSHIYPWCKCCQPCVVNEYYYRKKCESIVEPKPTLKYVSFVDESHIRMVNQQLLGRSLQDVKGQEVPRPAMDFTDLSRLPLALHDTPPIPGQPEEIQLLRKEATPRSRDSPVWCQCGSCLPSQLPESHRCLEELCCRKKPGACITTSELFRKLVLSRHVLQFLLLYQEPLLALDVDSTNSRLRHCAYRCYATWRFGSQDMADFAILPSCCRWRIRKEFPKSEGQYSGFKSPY
# protocolDescription: P2X7 receptor antagonist activity: bbATP-induced ethidium bromide fluorescence in THP-1 cells
# Assay type: cell-based
# runConditions: THP-1 cells; negative logarithm of concentration reducing bbATP agonist activity by 50%; ethidium bromide fluorescence; 37° C., one hour; read-out: pIC50 (converted)
Counter-ions that a name gives are not always drawn.
quantity: IC50 (nM)
Reply with just the number (in nM).

Below, 3 molecules whose answers are already recorded.
CN[C@@H]1CCN(c2ccc3c(NC(=O)CC4CCCCC4)c(Cl)ccc3n2)C1
25.1
O=C(O)CN1CCN(c2ccc3c(C(=O)NCC4CCCCC4)c(Cl)ccc3n2)CC1 [Example 73, Acetate]
398
O=C(CC1CCCCC1)Nc1c(Cl)ccc2nc(N3CC[C@@H](O)C3)ccc12
39.8

Note: attention shifts to another entry.
Sample O=C(CC1CCCCC1)Nc1c(Cl)ccc2nc(NCCNCCO)ccc12 [Example 17, Dihydrochloride] ; IC50 observed: 25.1
